Reference for the values: PubChem BioAssay

Target: Pantothenate synthetase (Mycobacterium tuberculosis (strain ATCC 25618 / H37Rv))
Test: Coupled enzyme confirmation of inhibitors against recombinant Mtb PanC (AID 375);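 note: 0% = full reaction with vehicle and 100% = no enzyme background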
Conditions: coupled enzyme assay; at 10 µM, hits give high values
The source made the active and inactive calls. The rule behind the calls is not given here.
Listed molecules paired with reported inhibition

NC(=O)c1cc(-c2ccccc2)nc(N2CCOCC2)n1 ... 0% (inactive)
Cn1c(SCc2nc3ccccc3c(=O)[nH]2)nnc1-c1ccco1 ... 13% (inactive)
CCOC(=O)c1oc2ccccc2c1NC(=O)COC ... 0% (inactive)

May I ask what inhibition has been recorded for `COCCCNC(=O)c1ccc2c(c1)OCO2` ?
1% (inactive)

// next record `CCOC(=O)N1CCN(C(=O)COc2ccc(S(=O)(=O)NC(C)C)cc2)CC1`
0% (inactive)
